The reported numbers originate from PubChem BioAssay (Tox21).

Test: qHTS assay for small molecule agonists of the antioxidant response element (ARE) signaling pathway (AID 743202)
Details: HepG2 ARE-bla reporter, beta-lactamase FRET, 16 h; series mostly up to 73.3 µM
Inconclusive results are not listed. Calls of active or inactive are those of the source. Calls follow the shape of the dose curve; as a rule, active = well fitted activation curve with a large enough effect in the signal ratio in the repeat runs (not every such curve was filed as active); inconclusive = weak or mixed curves, or effect the other way; inactive = no such curve, though single readings can be large or run the other way; the % refers to the signal ratio.
Allowed answers: active, inactive

compound | discrete_label
CC1=CC(=O)CC(C)(C)C1(O)/C=C/C(C)=C\C(=O)O (stereo unspecified) | inactive
CCOC(=O)/C=C/C(=O)O | active
CC(C)(C)C(=O)C(Oc1ccc(Cl)cc1)n1ccnc1 (stereo unspecified) | inactive
CCOC(=O)c1ccccc1OC | inactive
COc1cc2[nH]c(=O)[nH]c(=O)c2cc1OC | inactive

Here is the next item to consider.
Q: What is the recorded call for this compound in the test? C[C@@H]1C[C@H]2[C@@H]3CCC4=CC(=O)C=C[C@]4(C)[C@@]3(F)[C@@H](O)C[C@]2(C)[C@@]1(O)C(=O)CO
Result: inactive

====

Experiment: qHTS RealTime-Glo MT Cell Viability Assay in HEK293 cells - 16 hour (AID 1224872); also: nearly all actives have a fitted effect of over 50% in size
Settings: RealTime-Glo luminescence; series mostly up to 76.8 µM
Results filed as inconclusive are left out. Calls of active or inactive are those of the source. Calls follow the shape of the dose curve; as a rule, active = well fitted cell-killing curve with a large enough effect in the repeat runs; inconclusive = weak or mixed curves, or effect the other way; inactive = flat fitted curve, though single readings scatter.
Would you mind answering with one of these outcomes? True for active, False for inactive

Below are worked cases with known answers.
compound | discrete_label
CCCCC/C(=C\c1ccccc1)CO | False
CC(C)c1nnc2ccc(-c3ocnc3-c3cc(F)ccc3F)cn12 | True
CC(C)(C)C(=O)C(Oc1ccc(Cl)cc1)n1ccnc1 (stereo not drawn) | False
COc1cc2[nH]c(=O)[nH]c(=O)c2cc1OC | False
CC[C@@H]([C@H](C)O)n1ncn(-c2ccc(N3CCN(c4ccc(OC[C@@H]5CO[C@@](Cn6cncn6)(c6ccc(F)cc6F)C5)cc4)CC3)cc2)c1=O | True
Cc1oncc1C(=O)Nc1ccc(C(F)(F)F)cc1 | False
CC(C)CCCCCCOC(=O)CCCCC(=O)OCCCCCCC(C)C | False
OC(CCCN1CCCCC1)(c1ccccc1)c1ccccc1 | False
COCCOC | True
CCN(Cc1cccc(S(=O)(=O)O)c1)c1ccc(C(=C2C=CC(=[N+](CC)Cc3cccc(S(=O)(=O)[O-])c3)C=C2)c2ccccc2)cc1 | False

Q: What did this assay record as the result for CCCC1C(CC)=CC(CC)=CN1c1ccccc1 (stereo not drawn) ?
Result: True

====

Assay: qHTS assay to identify small molecule antagonists of the estrogen receptor beta (ER-beta) signaling pathway - cell viability counter screen (AID 1259382);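 also: HEK293T cells carrying ER-beta-UAS-bla reporter stimulated with estradiol; nearly all actives have a fitted effect of over 55% in size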
Settings: ER-beta-UAS-bla HEK293T viability, CellTiter-Glo luminescence, 16 h; series mostly up to 92.4 µM
Records with an inconclusive call do not appear. The source made the active and inactive calls. The call rests on the fitted dose curve; in most records, active means well fitted cell-killing curve with a large enough effect in the repeat runs; inconclusive means weak or mixed curves; inactive means flat fitted curve, though single readings scatter.
// allowed return values: active, inactive

compound | discrete_label
CNC(=O)N(c1ccccc1)c1ccccc1 | inactive
CN1CCCN=C1/C=C/c1cccs1 | inactive
Cc1cc(S(=O)(=O)O)ccc1N=Nc1c(O)ccc2ccccc12 | inactive
CCCCCCCCSCCO | inactive

Q: Tell me the assay call for COC(OC)(C(=O)c1ccccc1)c1ccccc1 please.
Result: inactive

Q: Called result for O=C(Nc1ccccc1)Nc1ccccc1
Result: inactive

Q: Query: recorded result category for Cc1nccn1-c1ccc(Sc2cccc(C3(C(N)=O)CCOCC3)c2)cc1 in this test
Result: inactive

Q: // outcome(item) with item = CN1C(=O)CC(C)(c2ccccc2)C1=O (centres undefined)
Result: inactive

Q: // return assay outcome for CCN(Cc1cccc(S(=O)(=O)O)c1)c1ccc(C(=C2C=CC(=[N+](CC)Cc3cccc(S(=O)(=O)[O-])c3)C=C2)c2ccccc2)cc1
Result: inactive

Q: Hi, do you know how CC(COc1ccc(C(C)(C)C)cc1)OS(=O)OCCCl (centres undefined) came out in this test?
Result: inactive

Q: Dear colleague, could you share the recorded outcome for Nc1nc(Cl)nc2c1ncn2[C@@H]1O[C@H](CO)[C@@H](O)[C@@H]1F when you have a moment?
Result: inactive

Q: Could you kindly confirm the outcome this assay logged for C[N+](C)(C)CCOC(N)=O ?
Result: inactive

Q: Can you look up the reported call for O=S(=O)(c1ccccc1)c1ccc(Cl)cc1 for me?
Result: inactive

Q: Dear colleague, could you share the recorded outcome for c1cc[c]([Bi]([c]2ccccc2)[c]2ccccc2)cc1 when you have a moment?
Result: inactive

Q: Outcome? CCCCC(=O)O[C@]1(C(=O)CO)CC[C@H]2[C@@H]3CCC4=CC(=O)CC[C@]4(C)[C@H]3[C@@H](O)C[C@@]21C
Result: inactive

Q: Recorded call for CCCCCCCCCCCC[N+](C)(C)CCCS(=O)(=O)[O-] ?
Result: inactive

Q: Identify the outcome logged in this assay for the compound shown: CC(C)C(=O)O
Result: inactive

Q: Returns: the outcome recorded for CCCCC(CC)CNCC(CC)CCCC (centres undefined) in this assay.
Result: inactive

====

Assay: qHTS assay to identify small molecule HDAC inhibitors (AID 1259364);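 also: wild-type HCT-116 cells with endogenous class I/II HDAC activity; top concentration of the series differs between compounds; nearly all actives have a fitted effect of over 45% in size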
Details: HCT-116 HDAC-Glo I/II luminescence, 2 h; series mostly up to 92.4 µM
Inconclusive results are not listed. Activity calls are given as the source filed them. The call rests on the fitted dose curve; in most records, active means well fitted inhibition curve with a large enough effect in the repeat runs; inconclusive means weak or mixed curves; inactive means flat fitted curve, though single readings scatter.
measured_metric: activity change, negative = inhibition

Use the examples below as a reference point.
molecule | value_reported
CC(CCc1ccc2c(c1)OCO2)NN (configuration not stated) | inactive
Nc1ccc(S(=O)(=O)O)c(N)c1 | inactive
CCCCCCCCCCCC[N+](C)(C)CCCS(=O)(=O)[O-] | inactive
Nc1nc(Cl)nc2c1ncn2[C@@H]1O[C@H](CO)[C@@H](O)[C@@H]1F | inactive
CC(C)C(OC(=O)c1ccccc1)C(C)(C)COC(=O)c1ccccc1 (configuration not stated) | inactive

Q: Bench note: what activity change, negative = inhibition did CN1Cc2cc(C(=O)N3CCC(C4CCNCC4)CC3)ccc2N[C@@H](CC(=O)O)C1=O show?
Result: inactive

Q: For Cc1cc(O)c2c(O)c3c(O)cccc3cc2c1 , what is its reported activity change, negative = inhibition?
Result: inactive

Q: Which activity change, negative = inhibition is reported for this molecule? CN1CCCN=C1/C=C/c1cccs1
Result: inactive

Q: Any idea what its activity change, negative = inhibition is? The molecule is CC(C)CCCC(=O)O
Result: inactive

Q: Give its activity change, negative = inhibition value. Item: CCCc1c(OCCCOc2ccc(OCC(=O)O)cc2)ccc(C(C)=O)c1O
Result: inactive

Q: Returns the measured activity change, negative = inhibition for the input molecule. Input: Cc1ccnc2ccccc12
Result: inactive

Q: For the molecule shown here, C(=C\c1ccccc1)/CN1CCN(C(c2ccccc2)c2ccccc2)CC1 , give the reported activity change, negative = inhibition.
Result: inactive

====

Assay: qHTS assay to identify small molecule antagonists of the estrogen related receptor signaling pathway with the pleiotropic PPARgamma coactivator (PGC) from Tox21 10K library - cell viability counter screen (AID 1224840); also: nearly all actives have a fitted effect of over 40% in size
Settings: PGC/ERR reporter cells viability, CellTiter-Fluor, 17.5 h; series mostly up to 92.4 µM
Results filed as inconclusive are left out. Activity calls are given as the source filed them. The call rests on the fitted dose curve; in most records, active means well fitted cell-killing curve with a large enough effect in the repeat runs (not every such curve was filed as active); inconclusive means weak or mixed curves, or effect the other way; inactive means no such curve, though single readings can be large or run the other way.
Write down one outcome, taken from active, inactive

Example results:
molecule | discrete_label
CN(C(=O)C(Cl)Cl)c1ccc(OC(=O)c2ccco2)cc1 | inactive
CCCCCCCCCCCC[N+](C)(C)CC(=O)[O-] | inactive
O=C(O)Cc1ccc(-c2ccccc2)cc1 | inactive
CC1CC(=O)NN=C1c1ccc(NCC(C)(C)NCC(O)COc2cc(Cl)ccc2C#N)cc1 (centres undefined) | inactive
OCC1CC=CCC1 (centres undefined) | inactive
O=S(=O)(c1ccccc1)c1ccc(Cl)cc1 | inactive
Nc1ccc(S(=O)(=O)O)c(N)c1 | inactive
C1COCO1 | inactive

Q: Status in this test for CCC(=O)OC/C=C/c1ccccc1 ?
Result: inactive

Q: Hi, do you know how CC(C)(C)CC(C)(C)c1ccc(OCCO)cc1 came out in this test?
Result: active

Q: Can you look up the reported call for Oc1cc(O)c(Cl)cc1Cl for me?
Result: inactive

Q: Give the logged outcome of this assay for the following molecule: O=C(c1ccc(O)cc1)c1ccc(Cl)cc1
Result: inactive

Q: Test call, this molecule: COC(=O)CC(=O)C(C)(C)C
Result: inactive

Q: Could you kindly confirm the outcome this assay logged for OC/C(Br)=C(\Br)CO ?
Result: inactive

====

Experiment: qHTS assay to identify small molecule agonists of the estrogen receptor beta (ER-beta) signaling pathway - cell viability counter screen (AID 1259380); also: nearly all actives have a fitted effect of over 30% in size
Settings: ER-beta-bla HEK293T viability, CellTiter-Glo luminescence, 16 h; series mostly up to 92.4 µM
Excerpt: National Center for Advancing Translational Sciences [NCATS] NIH Chemical Genomics Center [NCGC] U.S. Environmental Protection Agency [EPA] National Institutes of Environmental Health Sciences [NIEHS] National Toxicology Program [NTP] U.S. Food and Drug Administration [FDA] Estrogen receptor (ER), a nuclear hormone receptor, plays an important role in development, metabolic homeostasis and reproduction. […]
Records with an inconclusive call do not appear. Activity calls are given as the source filed them. Calls come from the whole dose curve; as a rule, active = well fitted cell-killing curve with a large enough effect in the repeat runs; inconclusive = weak or mixed curves, or effect the other way; inactive = flat fitted curve, though single readings scatter.
Choose one outcome from this list and give only that: active, inactive

compound | discrete_label
O=C(CCCN1CCC(O)(c2ccc(Br)cc2)CC1)c1ccc(F)cc1 | active
CC(=O)OCC(=O)[C@@]12OC(C)(C)O[C@@H]1C[C@H]1[C@@H]3C[C@H](F)C4=CC(=O)C=C[C@]4(C)[C@@]3(F)[C@@H](O)C[C@@]12C | inactive

Q: Entry CN1CCN(CCCN2c3ccccc3Sc3ccc(S(=O)(=O)N(C)C)cc32)CC1 : call = ?
Result: active

Q: Hi, sorry to bother you, what did the test record for CCN(Cc1cccc(S(=O)(=O)O)c1)c1ccc(C(=C2C=CC(=[N+](CC)Cc3cccc(S(=O)(=O)[O-])c3)C=C2)c2ccccc2)cc1 ?
Result: inactive

Q: I'd appreciate the recorded outcome for COc1ccccc1N=Nc1c(S(=O)(=O)O)cc2cc(S(=O)(=O)O)cc(NC(C)=O)c2c1O from this test.
Result: inactive
